Tested on: K-562
ASSAY SUMMARY: Growth inhibition of leukaemia line, continuous exposure, MTT staining
Assay type: cell-based
SETTINGS: Homo sapiens, K562
PARAMETER: IC50 (µM)
Use µM as the unit, but write only the number.

Qu. # IC50 lookup, item CN(C)CCNC(=O)c1cccc2cc3ccccc3nc12
Ans. 0.76

* * *

System: B1A
ASSAY SUMMARY: Resistance factor, drug-resistant Jurkat leukaemia subline
Format: cell-based, human
SETTINGS: B1A (from B1 by exposure to amsacrine); ratio of IC50 resistant line / parent line
Protocol: Tumour cell lines were cultured in 96-well plates. Growth of NCI cell lines was assessed using sulpho-rhodamine B staining (Skehan P., et al., J. Natl. Cancer Inst. 1990, 82, 1107-1112), that of the leukaemia lines with (4,5-dimethylthiazole-2-yl)-2,5-diphenyltetrazolium (MTT) staining (Mosmann T., J. Immun. Methods 1983, 65, 55-63) and that of the primary human tumour material by ^3H-thymidine incorporation (Marshall E.S., et al., J. Natl. Cancer Inst. 1992, 84, 341-344). […]
Catalogue of compounds with associated Resistance factors
Number only, please.

Solved cases (3 shown):
[[record]]
smiles_structure = "COc1cc(NS(C)(=O)=O)ccc1Nc1c2ccccc2nc2ccccc12"
target_of_assay = "B1A"
value_measured = 240

[[record]]
smiles_structure = "O=C1c2c(O)ccc(O)c2C(=O)c2c(NCCNCCO)ccc(NCCNCCO)c21"
target_of_assay = "B1A"
value_measured = 59

[[record]]
smiles_structure = "CC[C@@]1(O)C(=O)OCc2c1cc1n(c2=O)Cc2cc3ccccc3nc2-1"
target_of_assay = "B1A"
value_measured = 0.48


Below: the item to evaluate.
Qu. Notebook entry, B1A assay: Resistance factors of CN(C)CCNC(=O)c1cccc2cc3ccccc3nc12 = ?
Ans. 3.9
